# System: Mus musculus
# method.description: Toxicity in i.t dosed LPS-induced ICR-CD1 mouse thermal hyperalgesia model at ED50 after 24 hrs
# Type: organism-based
# particulars: in vivo, icv_or_intrathecal

[
  {
    "structure.string": "Cc1ccc(N(CCCN2CCC(Cc3ccc(C(N)=O)cc3)CC2)C(=O)C2CCN(C(=O)COCC(=O)NCCCCCCCNC(=O)COCC(=O)N[C@H]3CC[C@@]4(O)[C@H]5Cc6ccc(O)c7c6[C@@]4(CCN5C)[C@H]3O7)CC2)cc1Cl",
    "Activity": "Non-toxic"
  },
  {
    "structure.string": "Cc1ccc(N(CCCN2CCC(Cc3ccc(C(N)=O)cc3)CC2)C(=O)C2CCN(C(=O)COCC(=O)NCCCCCCCCCCNC(=O)COCC(=O)N[C@H]3CC[C@@]4(O)[C@H]5Cc6ccc(O)c7c6[C@@]4(CCN5C)[C@H]3O7)CC2)cc1Cl",
    "Activity": "Non-toxic"
  },
  {
    "structure.string": "Cc1ccc(N(CCCN2CCC(Cc3ccc(C(N)=O)cc3)CC2)C(=O)C2CCN(C(=O)COCC(=O)NCCCCCNC(=O)COCC(=O)N[C@H]3CC[C@@]4(O)[C@H]5Cc6ccc(O)c7c6[C@@]4(CCN5C)[C@H]3O7)CC2)cc1Cl",
    "Activity": "Non-toxic"
  },
  {
    "structure.string": "Cc1ccc(N(CCCN2CCC(Cc3ccc(C(N)=O)cc3)CC2)C(=O)C2CCN(C(=O)COCC(=O)NCCNC(=O)COCC(=O)N[C@H]3CC[C@@]4(O)[C@H]5Cc6ccc(O)c7c6[C@@]4(CCN5C)[C@H]3O7)CC2)cc1Cl",
    "Activity": "Non-toxic"
  },
  {
    "structure.string": "Cc1ccc(N(CCCN2CCC(Cc3ccc(C(N)=O)cc3)CC2)C(=O)C2CCN(C(=O)COCC(=O)NCCCCCCCCCCCCNC(=O)COCC(=O)N[C@H]3CC[C@@]4(O)[C@H]5Cc6ccc(O)c7c6[C@@]4(CCN5C)[C@H]3O7)CC2)cc1Cl",
    "Activity": "Toxic"
  },
  {
    "structure.string": "CNC(=O)COCC(=O)NCCCCCCCNC(=O)COCC(=O)N[C@H]1CC[C@@]2(O)[C@H]3Cc4ccc(O)c5c4[C@@]2(CCN3C)[C@H]1O5",
    "Activity": "Toxic"
  }
]
